test: Solubility of meloxicam API in different pH buffered solutions; type: physicochemical; conditions: aqueous buffer; pH 6.8 Phosphate Buffer; read-out: Meloxicam API Solubility (BCS)
endpoint label: solubility (µg/mL)

1) Cc1cnc(NC(=O)C2=C(O)c3ccccc3S(=O)(=O)N2C)s1 [Meloxicam] ... 2700

----------
experiment: Solubility of meloxicam API in different pH buffered solutions; format: physicochemical; settings: simulated gastric fluid; 0.01N HCl (pH 2.0); read-out: Meloxicam API Solubility (BCS)
endpoint label: solubility (mg/mL)

1) Cc1cnc(NC(=O)C2=C(O)c3ccccc3S(=O)(=O)N2C)s1 [Meloxicam] ... 0.02

----------
assay: Solubility of meloxicam API in different pH buffered solutions; format: physicochemical; settings: aqueous buffer; pH 4.5 Acetate buffer; read-out: Meloxicam API Solubility (BCS)
endpoint label: solubility (µg/mL)

1) Cc1cnc(NC(=O)C2=C(O)c3ccccc3S(=O)(=O)N2C)s1 ... 30
